meta.source: ChEMBL document CHEMBL5143648

Protocol Description: Inhibition of N-terminal tetra-cysteine tagged LexA repressor (unknown origin) assessed as reduction in RecA-mediated autoproteolysis by measuring release of fluorophore-labeled peptide using FlAsH-EDT2 as fluorescent substrate by FlAsH-LexA assay
Parameters: species or system Bacteria
Observation Type: IC50

Answered cases to consult:
| Smiles Input | IC50 |
| --- | --- |
| Cc1ccc(NC(=O)Cn2nnc(C(=O)Nc3ccccc3)c2N)c(C)c1 | > 250 µM |
| Cc1ccccc1NC(=O)Cn1nnc(C(=O)Nc2ccccc2)c1N | > 250 µM |
| Nc1ccc(NC(=O)Cn2nnc(C(=O)Nc3ccccc3)c2N)cc1 | > 250 µM |
| Nc1c(C(=O)Nc2ccccc2)nnn1CC(=O)Nc1ccc(C(=O)C(F)(F)F)cc1 | > 250 µM |
| Nc1c(C(=O)Nc2ccccc2)nnn1CC(=O)Nc1ccc(Cl)cc1 | > 250 µM |

Kindly give each listed record's IC50.
1. Nc1c(C(=O)Nc2ccccc2)nnn1CC(=O)Nc1c(Cl)cc(Cl)cc1Cl
2. Cc1ccc(NC(=O)Cn2nnc(C(=O)Nc3ccccc3)c2N)cc1

Found:
1: > 250 µM; 2: 107 µM

Kindly give each listed record's IC50.
1. CCOc1ccc(NC(=O)Cn2nnc(C(=O)Nc3ccccc3)c2N)cc1
2. Nc1c(C(=O)Nc2ccccc2)nnn1CC(=O)Nc1ccc(O)cc1
3. COC(=O)c1ccc(NC(=O)Cn2nnc(C(=O)Nc3ccccc3)c2N)cc1
4. Cc1ccc(/N=C2\NC(=O)C(N)=C2C(=O)Nc2ccccc2)cc1

Found:
48 µM
> 250 µM
75 µM
> 250 µM

Lookup: Any idea what its IC50 is? The compound is Nc1c(C(=O)Nc2ccccc2)nnn1CC(=O)NC1CCCCCC1
Found: > 250 µM
